testProtocol: Clearance in mouse hepatocytes assessed per million cells
observationType: hepatocyte CLint (µL/min/1e6 cells)

>>> endpointvalue("Cc1cc(Cn2c(=O)c3cc(S(=O)(=O)NC4(C)CC4)ccc3n(CC3COC3)c2=O)on1")
25
>>> endpointvalue("Cn1cc(Cn2c(=O)c3cc(S(=O)(=O)NC4(C)CC4)ccc3n(CC3COC3)c2=O)cn1")
24

====

measurementTarget: Poly(ADP-ribose) glycohydrolase (Homo sapiens, UniProt Q86W56)
Sequence (Q86W56 whole entry): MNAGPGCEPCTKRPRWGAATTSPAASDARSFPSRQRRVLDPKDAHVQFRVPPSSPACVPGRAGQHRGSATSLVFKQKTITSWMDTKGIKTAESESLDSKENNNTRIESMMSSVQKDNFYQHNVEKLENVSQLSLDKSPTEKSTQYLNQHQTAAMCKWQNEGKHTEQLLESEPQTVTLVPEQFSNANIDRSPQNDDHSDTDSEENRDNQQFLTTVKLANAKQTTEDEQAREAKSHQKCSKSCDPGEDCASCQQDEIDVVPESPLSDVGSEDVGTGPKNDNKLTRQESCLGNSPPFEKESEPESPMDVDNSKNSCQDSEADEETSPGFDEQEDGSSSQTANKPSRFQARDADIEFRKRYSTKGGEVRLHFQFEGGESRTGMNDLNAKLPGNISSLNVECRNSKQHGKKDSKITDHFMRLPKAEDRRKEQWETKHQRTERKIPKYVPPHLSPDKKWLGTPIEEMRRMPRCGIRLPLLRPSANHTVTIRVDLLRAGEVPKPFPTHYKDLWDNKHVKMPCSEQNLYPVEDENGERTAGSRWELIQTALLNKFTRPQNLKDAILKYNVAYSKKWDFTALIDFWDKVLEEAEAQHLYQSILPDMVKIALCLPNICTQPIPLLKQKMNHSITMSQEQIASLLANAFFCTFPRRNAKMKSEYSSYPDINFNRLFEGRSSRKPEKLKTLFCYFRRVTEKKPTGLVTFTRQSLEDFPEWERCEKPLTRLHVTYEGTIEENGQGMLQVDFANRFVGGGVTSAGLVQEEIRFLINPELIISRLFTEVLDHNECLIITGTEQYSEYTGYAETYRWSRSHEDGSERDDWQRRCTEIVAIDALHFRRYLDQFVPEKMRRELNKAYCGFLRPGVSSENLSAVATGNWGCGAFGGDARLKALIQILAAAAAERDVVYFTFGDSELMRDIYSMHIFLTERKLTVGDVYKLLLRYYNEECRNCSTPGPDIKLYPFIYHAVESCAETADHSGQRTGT
testProtocol: Inhibition of PARG in human HeLa cells assessed as induction of MMS-induced PAR chains preincubated for 1 hr followed by MMS addition and measured after 1 hr by Alexofluor 488-conjugated secondary antibody and Hoechst 33342 staining based assay
Assay type: cell-based
observationType: EC50 (nM)

>>> endpointvalue("CCn1c(=O)n(Cc2cc(C)no2)c(=O)c2cc(S(=O)(=O)NC3(C)CC3)ccc21")
120

a: Cn1c(=O)c2cc(S(=O)(=O)NC3(C)CC3)ccc2n(C)c1=O
b: CC(C)(C)NS(=O)(=O)c1ccc2c(c1)C(=O)c1ccccc1C2=O
c: Cn1cc(Cn2c(=O)c3cc(S(=O)(=O)NC4(C)CC4)ccc3n(CC3CC3)c2=O)cn1
d: Cn1c(=O)c2cc(S(=O)(=O)NC3(C#N)CC3)ccc2n(C)c1=O
Problem: Order by EC50, ascending. Hello, could you send the labels back in the order asked? Thank you.
Solution: c, a, d, b
(c: 56 nM, a: 1800 nM, d: 14000 nM, b: 30000 nM)

a: C#CCn1c(=O)n(Cc2cc(C)no2)c(=O)c2cc(S(=O)(=O)NC3(C)CC3)ccc21
b: Cc1cc(Cn2c(=O)n(CC#N)c(=O)c3cc(S(=O)(=O)NC4(C)CC4)ccc32)n(C)n1
c: Cc1nc(C)c(Cn2c(=O)n(Cc3cnn(C)c3)c(=O)c3cc(S(=O)(=O)NC4(C)CC4)ccc32)s1
Problem: Order by EC50, ascending. Hello, could you send the labels back in the order asked? Thank you.
Solution: c, a, b
(c: 20 nM, a: 76 nM, b: 560 nM)

The measurements presented in this section are drawn from ChEMBL document CHEMBL4261639.
